experiment: CCTE_Shafer_MEA_dev_network_spike_peak: CCTE's Neural Network Formation Assay for Mean Number of Electrodes in Network Spike, Shafer Lab (AID 2284049)
Calls of active or inactive are those of the source. How the source made its calls: active means hit-call score of the fitted dose curve at least 0.9, where 1 is the maximum; inactive means score below 0.9.
Valid outcomes are listed here; reply with one: active, inactive

Here are 8 compounds together with their reported answers.
COMPOUND: CC(C)[C@H](C(=O)O[C@H](C#N)c1cccc(Oc2ccccc2)c1)c1ccc(Cl)cc1
GROUP: active
//
COMPOUND: O=[N+]([O-])c1cc(C(F)(F)F)c(Cl)c([N+](=O)[O-])c1Nc1ncc(C(F)(F)F)cc1Cl
GROUP: active
//
COMPOUND: CCOP(=O)(SC(C)CC)N1CCSC1=O (stereo not given)
GROUP: inactive
//
COMPOUND: C#CCC1=C(C)C(OC(=O)C2C(C=C(C)C)C2(C)C)CC1=O (stereo not given)
GROUP: inactive
//
COMPOUND: CC(C)N(C(=O)SCC(Cl)=C(Cl)Cl)C(C)C
GROUP: active
//
COMPOUND: CCCSP(=O)(OCC)Oc1ccc(Br)cc1Cl (stereo not given)
GROUP: inactive
//
COMPOUND: CSC1=N[C@@](C)(c2ccccc2)C(=O)N1Nc1ccccc1
GROUP: inactive
//
COMPOUND: CC(Oc1cccc(Cl)c1)C(=O)O (stereo not given)
GROUP: inactive

input: Entry CC1=NNC(=O)N(/N=C/c2cccnc2)C1 : call = ?
output: inactive

input: Tell me the assay call for CCOC(=O)CC(SP(=O)(OC)OC)C(=O)OCC (stereo not given) please.
output: inactive
